Values compiled from patent EP4722209A1.

Experimental Target: ERα (Homo sapiens)
Construct: host or cells: MCF-7
Sequence (P03372 1-595): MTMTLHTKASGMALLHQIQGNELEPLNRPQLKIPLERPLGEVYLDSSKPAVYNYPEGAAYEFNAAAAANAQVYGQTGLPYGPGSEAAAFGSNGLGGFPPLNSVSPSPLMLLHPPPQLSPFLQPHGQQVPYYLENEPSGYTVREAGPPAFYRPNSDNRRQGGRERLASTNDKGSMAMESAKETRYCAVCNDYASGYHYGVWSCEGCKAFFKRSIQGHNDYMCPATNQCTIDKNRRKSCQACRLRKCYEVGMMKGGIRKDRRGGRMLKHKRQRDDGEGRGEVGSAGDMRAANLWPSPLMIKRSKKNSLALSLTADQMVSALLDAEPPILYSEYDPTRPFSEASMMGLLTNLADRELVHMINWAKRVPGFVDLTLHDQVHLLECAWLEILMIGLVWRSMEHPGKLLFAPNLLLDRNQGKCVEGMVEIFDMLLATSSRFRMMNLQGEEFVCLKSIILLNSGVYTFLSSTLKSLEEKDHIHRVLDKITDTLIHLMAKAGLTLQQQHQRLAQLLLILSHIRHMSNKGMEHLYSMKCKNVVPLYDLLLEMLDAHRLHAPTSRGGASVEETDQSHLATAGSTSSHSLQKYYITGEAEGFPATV
Experiment Summary: ER degradation activity in MCF-7 cells (Western blot, grayscale intensity)
Format: cell-based
Measurement Setup: 6 hours treatment, 1 nM to 100 nM, concentration required to degrade 50% of the target protein
Experimental: ERα-positive human breast cancer cells MCF-7 (ATCC, HTB-22) were cultured with EMEM medium (ATCC, catalog number 30-2003) containing 10% fetal bovine serum (Thermo Fisher, catalog number 10099141) and 10 µg/mL bovine insulin in 25 cm^2 or 75 cm^2 plastic tissue culture flasks in a 37 °C incubator with 5% CO2. […] The culture medium was removed, and the cells were washed twice with ice cold PBS. […] The protein concentration was measured using the BCA protein assay kit. […]
Parameter Measured: DC50

* CC1(C)CC(=C(c2ccc(N3CCC(CN4CCN(c5ccc6c(c5)CN([C@@H]5CCC(=O)NC5=O)C6=O)CC4)CC3)nc2)c2ccc3[nH]ncc3c2)CC(C)(C)O1 | < 10 nM
* CC1(C)CC(=C(c2ccc(N3CCC4(CN(C(=O)CN5Cc6cc7c(cc6C5)C(=O)N(C5CCC(=O)NC5=O)C7)C4)C3)nc2)c2ccc3[nH]nc(F)c3c2)CC(C)(C)O1 (centres unmarked) | > 100 nM
* CC1(C)CC(=C(c2ccc(N3CC4(CC(N5CCN(c6ccc7c(c6)CN(C6CCC(=O)NC6=O)C7=O)CC5)C4)C3)nc2)c2ccc3[nH]nc(F)c3c2)CC(C)(C)O1 (centres unmarked) | > 100 nM
* CC1(C)CC(=C(c2ccc(N3CCN(C4CC5(CCN(c6ccc7c(c6)CN(C6CCC(=O)NC6=O)C7=O)C5)C4)CC3)nc2)c2ccc3[nH]nc(F)c3c2)CC(C)(C)O1 (centres unmarked) | > 100 nM

# context switch: different compound, same DC50
Q) Suppose we examine the compound CC1(C)CC(=C(c2ccc(N3CCN(C4CCN(c5ccc6c(c5)CN(C5CCC(=O)NC5=O)C6=O)CC4)CC3)cc2)c2ccc3[nH]ncc3c2)CC(C)(C)O1 (centres unmarked) ; what DC50 value has been reported?
A) 10 to 100 nM
